Measured pKi (Promotilin (Homo sapiens, UniProt P12872))
Formally, pKi is defined as -log10 of the concentration c, with c in mol/L.

H-FVAIFTYGELQRLQ-NH2 [[ala3,leu13]pMOT(1-14)] | 8.88

-- ask Look at this substance and give its reported pKi. H-FVPIFTYGELQRLQEKERN-NH2 [[leu13]pMOT(1-19)]
-- reply 9.01

-- ask Can you handle H-FVPIFTY-NH2 [[leu13]pMOT(1-7)] next?
-- reply 5.16

-- ask Can you handle H-FVPIFTYGALQRLQ-NH2 [[ala9,leu13]pMOT(1-14)] next?
-- reply 7.12

-- ask Can you handle H-FVPIFTYAELQRLQ-NH2 [[ala8,leu13]pMOT(1-14)] next?
-- reply 7.44

-- ask Can you handle H-FVPIFTYGELARLQ-NH2 [[ala11,leu13]pMOT(1-14)] next?
-- reply 8.34
